In this section we review reported Retention_time values for a set of compounds.
# EXPERIMENTAL_PROTOCOL: Retention time of the compound by UPLC analysis
# Type: physicochemical
Just the number please, in min, no unit attached.

COMPOUND: O=C(O[C@H]1[C@H](Oc2c(-c3ccc(O)cc3)oc3cc(O)cc(O)c3c2=O)O[C@H](CO)[C@@H](O)[C@@H]1O)c1cc(O)c(O)c(O)c1
MEASURED_RESULT: 27.02

COMPOUND: O=C(O)c1cc(O)c(O)c(O)c1 [GALLIC ACID]
MEASURED_RESULT: 5.04

From here, focus on the item given below.
Task item: Requested read-out: Retention_time. Entry: C[C@@H]1O[C@@H](Oc2c(-c3ccc(O)cc3)oc3cc(O)cc(O)c3c2=O)[C@H](O)[C@H](O)[C@H]1O [AFZELIN]
Reply: 25.42

* * *

# EXPERIMENTAL_PROTOCOL: Retention time of the compound by UPLC analysis
# Format: physicochemical
MEASURED_PROPERTY: Retention_time (min)
Just the number please, in min, no unit attached.

Consider the following illustrative entries.
COMPOUND: Oc1cc(O)c2c(c1)O[C@H](c1ccc(O)c(O)c1)[C@@H](O)[C@@H]2c1c(O)cc(O)c2c1O[C@H](c1ccc(O)c(O)c1)[C@@H](O)C2
Retention_time [min]: 14.6

COMPOUND: CCOC(=O)c1cc(O)c(O)c(O)c1 [ETHYLGALLATE]
Retention_time [min]: 20.55

COMPOUND: Oc1cc(O)c2c(c1)O[C@H](c1ccc(O)c(O)c1)[C@@H](O)C2 [CIANIDANOL]
Retention_time [min]: 13.56

COMPOUND: C[C@@H]1O[C@@H](Oc2c(-c3ccc(O)c(O)c3)oc3cc(O)cc(O)c3c2=O)[C@H](O)[C@H](O)[C@H]1O [QUERCITRIN]
Retention_time [min]: 23.37

COMPOUND: Oc1cc(O)c2c(c1)O[C@H](c1ccc(O)c(O)c1)[C@H](O)C2 [(-)-EPICATECHIN]
Retention_time [min]: 17.1

COMPOUND: O=c1c(O)c(-c2ccc(O)c(O)c2)oc2cc(O)cc(O)c12 [QUERCETIN]
Retention_time [min]: 28.97

Task item: Requested read-out: Retention_time. Entry: O=C(OC[C@H]1O[C@@H](Oc2c(-c3ccc(O)cc3)oc3cc(O)cc(O)c3c2=O)[C@H](OC(=O)c2cc(O)c(O)c(O)c2)[C@@H](O)[C@@H]1O)c1cc(O)c(O)c(O)c1
Reply: 23.37
